tested on: Serratia marcescens (SMA) isolates; assay: MIC of compounds alone and combined with antibacterials, broth microdilution (CLSI); type: cell-based; conditions: strain SMA UFR238; antibacterial combined with AF1 @ 4 μg/mL
endpoint_label: MIC ATB in combination (µg/mL)
Answer in µg/mL, number only, no unit symbol.

Can you share its MIC ATB in combination? I mean this compound: "C=CC1=C(C(=O)O)N2C(=O)[C@@H](NC(=O)/C(=N\OCC(=O)O)c3csc(N)n3)[C@H]2SC1"
1

Another: "CO/N=C(\C(=O)N[C@@H]1C(=O)N2C(C(=O)O)=C(COC(N)=O)CS[C@H]12)c1ccco1"
64

Another: "C=CC1=C(C(=O)O)N2C(=O)[C@@H](NC(=O)/C(=N\O)c3csc(N)n3)[C@H]2SC1"
4

Another: "COCC1=C(C(=O)O)N2C(=O)[C@@H](NC(=O)/C(=N\OC)c3csc(N)n3)[C@H]2SC1"
2

###

System: Enterobacter cloacae (ECL) isolates
Assay: MIC of compounds alone and combined with antibacterials, broth microdilution (CLSI)
Assay type: cell-based
Settings: Enterobacter cloacae, strain ECL UFR13 (TEM-1, SHV-12, CTX-M-9, OXA-48); ATB alone
Protocol: Method 2: MIC of Compounds Alone and Combined with Antibacterials Against Bacterial Isolates. Compounds of the present invention were assessed against genotyped bacterial strains (Table 3, 4) alone or in combination with an antibacterial (Table 2). […] The MIC of the compounds was defined as the lowest concentration of said compounds that prevented bacterial growth as read by visual inspection. […]
endpoint_label: MIC

Can you share its MIC? I mean this compound: "CO/N=C(\C(=O)N[C@@H]1C(=O)N2C(C(=O)O)=C(COC(N)=O)CS[C@H]12)c1ccco1"
> 256 µg/mL

Another: "CC(C)(O/N=C(\C(=O)N[C@@H]1C(=O)N2C(C(=O)[O-])=C(C[n+]3ccccc3)CS[C@H]12)c1csc(N)n1)C(=O)O"
> 256 µg/mL

Another: "C=CC1=C(C(=O)O)N2C(=O)[C@@H](NC(=O)/C(=N\OCC(=O)O)c3csc(N)n3)[C@H]2SC1"
> 128 µg/mL

Another: "CC1(C)S[C@@H]2[C@H](NC(=O)[C@H](N)c3ccc(O)cc3)C(=O)N2[C@H]1C(=O)O"
> 256 µg/mL

###

System: Escherichia coli (ECO) isolates
Experiment: MIC of compounds alone and combined with antibacterials, broth microdilution (CLSI)
Format: cell-based
Details: Escherichia coli, strain ECO 131119 (TEM-1, OXA-48); ATB alone
Procedure: Method 2: MIC of Compounds Alone and Combined with Antibacterials Against Bacterial Isolates. Compounds of the present invention were assessed against genotyped bacterial strains (Table 3, 4) alone or in combination with an antibacterial (Table 2). […] The MIC of the compounds was defined as the lowest concentration of said compounds that prevented bacterial growth as read by visual inspection. […]
Kindly supply the reported MIC values for the records listed here.
Answer in µg/mL, number only, no unit symbol.

Can you share its MIC? I mean this compound: "CO/N=C(\C(=O)N[C@@H]1C(=O)N2C(C(=O)O)=C(COC(N)=O)CS[C@H]12)c1ccco1"
8

Another: "CC(C)(O/N=C(\C(=O)N[C@@H]1C(=O)N2C(C(=O)[O-])=C(C[n+]3ccccc3)CS[C@H]12)c1csc(N)n1)C(=O)O"
0.5
